# Lookup of reported Ki keyed by entry
- experimental_system: hMCHR (MCH receptor) (Homo sapiens, UniProt Q99705)
- Construct: (or internally produced); host or cells: CHO (Chinese hamster ovary) cells, membrane preparation
- Sequence (Q99705 whole entry): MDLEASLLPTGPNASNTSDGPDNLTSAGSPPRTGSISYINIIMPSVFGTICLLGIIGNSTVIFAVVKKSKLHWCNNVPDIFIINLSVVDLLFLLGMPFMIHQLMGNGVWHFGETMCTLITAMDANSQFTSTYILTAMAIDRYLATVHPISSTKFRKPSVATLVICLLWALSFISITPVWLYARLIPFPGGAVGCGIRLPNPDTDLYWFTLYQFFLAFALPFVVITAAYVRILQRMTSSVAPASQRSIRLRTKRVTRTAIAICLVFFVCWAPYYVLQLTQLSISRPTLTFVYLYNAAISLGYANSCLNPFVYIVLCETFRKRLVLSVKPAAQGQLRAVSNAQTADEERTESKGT
- measurement_notes: MCH Assay PCOP Protocol ([125I]-MCH SPA binding to hMCHR-CHO membranes);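 for Activity (Ki range): A 0.4–50 nM B 51–500 nM C 501–2500 nM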
- test_conditions: [125I]-MCH binding to hMCHR-CHO membranes; class symbols for ranges of Ki; read-out: Activity (Ki range)

Use these answered entries as a reference point.
• Cc1ccc2[nH]cc(CCNCCC(CNC(=O)c3cc(C(F)(F)F)cc(C(F)(F)F)c3)c3ccc(Cl)c(Cl)c3)c2c1 (stereo not shown) = 501 to 2500 nM
• O=C(NCC(CCNCc1ccc2c(c1)OCO2)c1ccc(Cl)c(Cl)c1)Nc1cc(Cl)cc(Cl)c1 (stereo not shown) = 501 to 2500 nM

The compound CN(C)C1CCN(CCC(CNC(=O)Nc2ccc(Cl)c(Cl)c2)c2ccc(Cl)c(Cl)c2)C1 (stereo not shown) showed Ki equal to 51 to 500 nM

The compound Cc1cccc(C(CCN2CCCC2)CNC(=O)Nc2cc(C(F)(F)F)cc(C(F)(F)F)c2)c1 (stereo not shown) showed Ki equal to 501 to 2500 nM

###

- experimental_system: hMCHR (MCH receptor) (Homo sapiens)
- Construct: (or internally produced); host or cells: CHO (Chinese hamster ovary) cells, membrane preparation
- measurement_notes: MCH Assay PCOP Protocol ([125I]-MCH SPA binding to hMCHR-CHO membranes)
- test_conditions: [125I]-MCH 0.5 nM, hMCHR-CHO membranes; read-out: Activity (ranges of Ki values)
- Protocol: A reaction mixture of 10 μg hMCHR-CHO overexpressing membranes (from Receptor Biology, Inc., Beltsville, Md., or internally produced) and 100 μg/well WGA-SPA beads (from Amersham Pharmacia Biotech, Inc., Piscataway, N.J.)/100 μl was prepared in MCHR assay buffer (25 mM HEPES, pH 7.4, 10 mM NaCl, 10 mM MgCl2, 5 mM MnCl2, 0.1% BSA). […]
pKi: −log10 of the molar value.
readout_kind: pKi

Use these answered entries as a reference point.
* O=C(NCC(CCNC1CCCC1)c1ccc(Cl)cc1)Nc1cccc(Cl)c1 (stereo not shown) | 5.60 to 6.30
* CN(C)CCCNCCC(CNC(=O)Nc1cc(Cl)cc(Cl)c1)c1ccc(-c2c(F)cccc2F)cc1 (stereo not shown) | 5.60 to 6.30
* O=C(NCC(CCNC1CCCC1)c1ccc(-c2c(F)cccc2F)cc1)Nc1cc(Cl)cc(Cl)c1 (stereo not shown) | 6.30 to 7.29
* COc1ccccc1-c1cccc(C(CCNCCCN(C)C)CNC(=O)Nc2cc(Cl)cc(Cl)c2)c1 (stereo not shown) | 5.60 to 6.30
* O=C(NCC(CCNC1CCCC1)c1ccc(Cl)c(Cl)c1)Nc1ccc(F)c(Cl)c1 (stereo not shown) | 6.30 to 7.29

The compound N#Cc1cccc(-c2ccc(C(CCNC3CC3)CNC(=O)Nc3ccccc3)cc2)c1 (stereo not shown) showed pKi equal to 7.30 to 9.40

The compound Cc1noc(C)c1-c1ccc(C(CCNC2CCCC2)CNC(=O)Nc2cc(Cl)cc(Cl)c2)cc1 (stereo not shown) showed pKi equal to 6.30 to 7.29

The compound CC(CCNC1CCCC1)(CNC(=O)Nc1ccc(F)c(F)c1)c1ccc(Cl)c(Cl)c1 (stereo not shown) showed pKi equal to 5.60 to 6.30

The compound CC(=O)NC1CCN(CCC(CNC(=O)Nc2cc(Cl)cc(Cl)c2)c2ccc(Cl)cc2)C1 (stereo not shown) showed pKi equal to 6.30 to 7.29
